pIC50 for assorted molecules
# TARGET SYSTEM: GRK6, recombinant full-length GST-tagged human protein (Homo sapiens)
# Construct: Enzyme: 20 nM GRK6, recombinant full-length GST-tagged human protein; GST
# MEASUREMENT PROTOCOL: GRK6 assay, IC50 determination (8-point concentration-response)
# Assay type: biochemical
# ASSAY SETUP: Series 1 (Table 11); 20 nM GRK6, ATP 12 μM (Km), Peptide 216 1 μM, incubation 7 h
In plain terms, pIC50 is the concentration in mol/L turned into minus its base-10 logarithm.

Field: example entries. Status: answers known.
O=C(O)CSc1nnc(-c2ccc(-c3ccc4[nH]ccc4c3)o2)[nH]1 | 6.46
O=C(O)CSc1nnc(-c2ccc(-c3cccc(O)c3)o2)[nH]1 | 6.20
O=C(O)CSc1nnc(-c2ccc(-c3cccc([N+](=O)[O-])c3)o2)[nH]1 | 6.21

Next item in the queue.
Recorded pIC50 (molecule `COc1cc(-c2ccc(-c3nnc(SCC(=O)O)[nH]3)o2)ccc1OCc1ccccc1` ): 6.40

====

# TARGET SYSTEM: GRK6, recombinant full-length GST-tagged human protein (Homo sapiens)
# Construct: Enzyme: 20 nM GRK6, recombinant full-length GST-tagged human protein; GST
# MEASUREMENT PROTOCOL: GRK6 assay, IC50 determination (8-point concentration-response)
# Format: biochemical
# ASSAY SETUP: Series 1 (Table 11); 20 nM GRK6, ATP 12 μM (Km), Peptide 216 1 μM, incubation 7 h
# Procedure: The following assay conditions were used. Buffer: 50 mM TRIS-HCl, pH 7.5, 5 mM MgCl2, 2 mM DTT, 0.01% Triton X-100, 10 μM Na3VO4, 10 μM b-GP, 1% DMSO Enzyme: 20 nM GRK6, recombinant full-length GST-tagged human protein Peptide substrate (Peptide 216): 1 μM One hundred two compounds (1-1-1-102) were further characterized by determining IC50 values in a GRK6 assay. This screen has been previously described in WO 2013/063458, which is incorporated by reference in its entirety herein. […]
MEASURED ATTRIBUTE: IC50 (µM)
Express the result in µM but write the number alone.

Field: example entries. Status: answers known.
Cn1c2ccccc2c2ccc(-c3ccc(-c4nnc(SCC(=O)O)[nH]4)o3)cc21 [Compound 1-12] | 0.189
COc1ccc2cc(-c3oc(-c4nnc(SCC(=O)O)[nH]4)cc3C#CCO)ccc2c1 [Compound 1-31] | 0.324
O=C(O)CSc1nnc(-c2ccc(-c3ccccc3)o2)[nH]1 [Compound 1-73] | 0.996
O=C(O)CSc1nnc(-c2ccc(Br)o2)[nH]1 [Compound 1-97] | 3.33
COc1ccc2cc(C#Cc3ccc(-c4nnc(SCC(=O)O)[nH]4)o3)ccc2c1 [Compound 1-11] | 0.187
O=C(O)CSc1nnc(-c2ccc(-c3ccc(Br)cc3)o2)[nH]1 [Compound 1-68] | 0.813

Field IC50 (system: GRK6, recombinant full-length GST-tagged human protein (Homo sapiens)) for entry O=C(O)CSc1nnc(-c2ccc(-c3ccc(Oc4ccccc4)cc3)o2)[nH]1 [Compound 1-25] = 0.284

Field IC50 (system: GRK6, recombinant full-length GST-tagged human protein (Homo sapiens)) for entry COc1ccc(/C=C/c2ccc(-c3nnc(SCC(=O)O)[nH]3)o2)cc1 [Compound 1-53] = 0.514

====

pIC50 for assorted compounds
# TARGET SYSTEM: GRK6, recombinant full-length GST-tagged human protein (Homo sapiens, UniProt P43250)
# Construct: Enzyme: 20 nM GRK6, recombinant full-length GST-tagged human protein; GST
# Sequence (P43250 whole entry): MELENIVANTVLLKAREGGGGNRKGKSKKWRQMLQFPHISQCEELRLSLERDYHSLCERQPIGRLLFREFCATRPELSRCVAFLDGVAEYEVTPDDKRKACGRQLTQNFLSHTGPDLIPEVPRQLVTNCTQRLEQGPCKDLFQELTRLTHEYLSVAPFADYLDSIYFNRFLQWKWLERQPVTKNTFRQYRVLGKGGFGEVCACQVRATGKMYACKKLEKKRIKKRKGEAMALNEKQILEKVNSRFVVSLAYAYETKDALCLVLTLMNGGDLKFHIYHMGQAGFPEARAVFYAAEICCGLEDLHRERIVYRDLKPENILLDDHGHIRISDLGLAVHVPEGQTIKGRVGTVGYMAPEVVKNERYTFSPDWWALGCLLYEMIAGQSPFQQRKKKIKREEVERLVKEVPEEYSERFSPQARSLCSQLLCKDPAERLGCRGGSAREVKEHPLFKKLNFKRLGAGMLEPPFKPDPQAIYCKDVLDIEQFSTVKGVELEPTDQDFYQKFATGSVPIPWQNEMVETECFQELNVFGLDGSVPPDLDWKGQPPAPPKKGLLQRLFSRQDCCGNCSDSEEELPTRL
# MEASUREMENT PROTOCOL: GRK6 assay, IC50 determination (8-point concentration-response)
# Format: biochemical
# ASSAY SETUP: Series 2 (Table 12); conditions as Example 18
In plain terms, pIC50 is the concentration in mol/L turned into minus its base-10 logarithm.

Field: example entries. Status: answers known.
COc1ccc2cc(-c3cc(SCC(=O)O)n[nH]3)ccc2c1 [Compound 2-10] | 5.83
Cn1c2ccccc2c2ccc(-c3ccc(-c4cc(SCC(=O)O)n[nH]4)o3)cc21 [Compound 2-8] | 5.90
O=C(O)CSc1cc(-c2ccc(-c3ccc4c(c3)[nH]c3ccccc34)o2)[nH]n1 [Compound 2-9] | 5.89
O=C(O)CSc1cc(-c2ccc(-c3ccc4ccccc4c3)s2)[nH]n1 [Compound 2-7] | 6.10

Next item in the queue.
Field pIC50 (system: GRK6, recombinant full-length GST-tagged human protein (Homo sapiens, UniProt P43250)) for entry COc1ccc2cc(-c3ccc(-c4cc(SCC(=O)O)n[nH]4)s3)ccc2c1 [Compound 2-6] = 6.14

====

log10 of IC50 for assorted molecules
# TARGET SYSTEM: GRK6, recombinant full-length GST-tagged human protein (Homo sapiens)
# Construct: Enzyme: 20 nM GRK6, recombinant full-length GST-tagged human protein; GST
# MEASUREMENT PROTOCOL: GRK6 assay, IC50 determination (8-point concentration-response)
# Format: biochemical
# ASSAY SETUP: Series 1 (Table 11); 20 nM GRK6, ATP 12 μM (Km), Peptide 216 1 μM, incubation 7 h
Record value = log10 of IC50 given in µM.

Field: example entries. Status: answers known.
O=C(O)CSc1nnc(-c2ccc(-c3cccc(Cl)c3)o2)[nH]1 [Compound 1-36] | -0.44
Cn1cc(-c2ccc(-c3nnc(SCC(=O)O)[nH]3)o2)cn1 [Compound 1-98] | 0.57
O=C(O)CSc1nnc(-c2ccc(-c3cccc(OCc4cccc(Cl)c4)c3)o2)[nH]1 [Compound 1-24] | -0.56
O=C(O)CSc1nnc(-c2ccc(-c3cccc(OCc4ccccc4)c3)o2)[nH]1 [Compound 1-23] | -0.56
CCCOc1cccc(-c2ccc(-c3nnc(SCC(=O)O)[nH]3)o2)c1 [Compound 1-34] | -0.47
Cn1ccc2cc(-c3ccc(-c4nnc(SCC(=O)O)[nH]4)o3)ccc21 [Compound 1-61] | -0.20

Recorded log10 of IC50 (molecule O=C(O)CSc1nnc(-c2ccc(-c3ccc(Cl)cc3)o2)[nH]1 [Compound 1-50] ): -0.33

Recorded log10 of IC50 (molecule COC(=O)CSc1nnc(-c2ccc(C#Cc3ccc4ccccc4c3)o2)[nH]1 [Compound 1-102] ): 0.92

Recorded log10 of IC50 (molecule Cc1cc2cc(-c3ccc(-c4nnc(SCC(=O)O)[nH]4)o3)ccc2n1C [Compound 1-69] ): -0.08

Recorded log10 of IC50 (molecule O=C(O)CSc1nnc(-c2ccc(-c3ccc(Cl)s3)o2)[nH]1 [Compound 1-76] ): 0.05

# credit: patent US9902739B2
